# Protocol Text: chemical genetic growth profiling, strain panel (AID 1159580);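 further: tested at 20 µM; growth read once vehicle control cultures reached saturation at 30 °C; 1 = growth at the plate median or of vehicle wells; lower values mean less growth of the strain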
# Particulars: S. cerevisiae deletion strains, growth OD, locus YOL147C, strain pex11, active compounds read low
About 2,000 (36%) of roughly 5,500 compounds were called active. About 18% were inconclusive and are not listed. This is one part of the list.
Measurement Label: normalized growth
Lab note: record the figure alone, no unit after it.

// fetch normalized growth given entry CC(=O)OC1CC[C@@]2(C)C(CCC3C2CC[C@]2(C)C(C4=CC(=O)OC4)C(OC(C)=O)CC32O)C1 (stereo partly specified)
1.01

Specify measured normalized growth for CC1(C)C(=O)CC[C@@]2(C)C1C[C@@H](O)[C@@]1(C)C3=CC(=O)O[C@@H](c4ccoc4)[C@]3(C)CCC21 (stereo partly specified) .
0.991

Dear colleague, please send me the reported normalized growth for "NC(=O)c1cc([N+](=O)[O-])cc([N+](=O)[O-])c1" when you can.
0.998

Using known records, supply normalized growth for "CCCc1nn(C)c2c(=O)[nH]c(-c3cc(S(=O)(=O)N4CCN(C)CC4)ccc3OCC)nc12"
0.985

Output measured normalized growth for this item: COC(=O)C(N)CS (stereo unspecified)
0.984

# return recorded normalized growth for entry "NCCCCN"
1.01

Provide one value: measured normalized growth of C[C@@H]1CC[C@@]23CCC4(C)[C@@](C=CC5[C@@]6(C)CC[C@H](O)C(C)(C)C6CC[C@]54C)(OC2=O)C3[C@H]1C (stereo partly specified)
1.01

Hello, please tell me recorded normalized growth for this one: CC1(C)S[C@@H]2[C@H](NC(=O)C(C(=O)O)c3ccccc3)C(=O)N2[C@H]1C(=O)O (stereo partly specified)
0.982

Using the record for COC1C(O)C(O[C@H]2CC[C@]3(C=O)C4C(CC[C@]3(O)C2)[C@@]2(O)CC[C@H](C3=CC(=O)OC3)[C@@]2(C)C[C@H]4OC(C)=O)OC(C)C1OC(C)=O (stereo partly specified) , state its measured normalized growth.
1.02

Tell me measured normalized growth for NCC(O)CC(=O)O (stereo unspecified) please.
1

Identify normalized growth associated with the molecule "CN(C)CC[C@H](c1ccc(Cl)cc1)c1ccccn1"
0.991

* * *

# Protocol Text: chemical genetic growth profiling, strain panel (AID 1159580);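 further: tested at 20 µM; growth read once vehicle control cultures reached saturation at 30 °C; 1 = growth at the plate median or of vehicle wells; lower values mean less growth of the strain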
# Particulars: S. cerevisiae deletion strains, growth OD, locus YPL055C, strain LGE1, active compounds read low
In all, about 5,500 compounds went through this assay and about 2,000 (36%) were called active. Another 18% or so got no clear call; they are omitted. This is one part of the list.
Measurement Label: normalized growth

Indicate the recorded normalized growth value for this compound: "Cc1ccc(OS(=O)(=O)c2ccc(Cl)cc2)c([N+](=O)[O-])n1"
0.962 (inactive)

# return recorded normalized growth for input "COc1nc(NC(C)C)nc(NC(C)C)n1"
1.02 (inactive)

Write down normalized growth measured for item "O=C(Oc1ccccc1C(=O)O)c1ccccc1O"
0.992 (inactive)

Quick one: give measured normalized growth for "CC(C)Nc1nc(Cl)nc(NC(C)C)n1"
0.983 (inactive)

Return the recorded normalized growth value; entry: CNCCC(Oc1ccccc1C)c1ccccc1 (stereo not drawn)
0.984 (inactive)

Supply reported normalized growth belonging to this compound: "CN[C@@H]1C[C@@H](c2ccc(Cl)c(Cl)c2)c2ccccc21"
0.927 (inactive)

Check the records and state normalized growth for C/C=C/CC(C)C(O)C1C(=O)NC(CC)C(=O)N(C)CC(=O)N(C)C(CC(C)C)C(=O)NC(C(C)C)C(=O)N(C)C(CC(C)C)C(=O)NC(C)C(=O)NC(C)C(=O)N(C)C(CC(C)C)C(=O)N(C)C(CC(C)C)C(=O)N(C)C(C(C)C)C(=O)N1C (stereo not drawn)
0.949 (inactive)

Please indicate normalized growth recorded for "O=[N+]([O-])c1cccnc1Oc1ccc(Cl)cc1"
0.959 (inactive)

Give normalized growth for "COc1ccc(Br)c(-c2nnc(-c3ccccc3[N+](=O)[O-])o2)c1"
0.953 (inactive)

Return normalized growth for the following compound: Cc1ccc(OCC(O)C(C)NC(C)C)c2c1CCC2 (stereo not drawn)
1 (inactive)

Please indicate normalized growth recorded for "CN(C)/C=C1\CSc2ccc(F)cc2C1=O"
0.787 (active)

// fetch normalized growth given entry "O=C(CCCN1CCC2(CC1)C(=O)N(CCc1ccc(N=C=S)cc1)CN2c1ccccc1)c1ccc(F)cc1"
0.916 (inactive)

Using the record for "CSc1cc(C(F)(F)F)cc(SC)c1SC" , state its measured normalized growth.
0.866 (inactive)

Supply recorded normalized growth for COC1CC(O[C@H]2CC[C@]3(C=O)C4CC[C@]5(C)C(C6=CC(=O)OC6)CC[C@]5(O)C4CC[C@]3(O)C2)OC(C)C1O (stereo partly drawn) here.
1.06 (inactive)

Return the recorded normalized growth value; entry: C[C@@H](CO)NC(=O)C1C=C2c3cccc4[nH]cc(c34)C[C@H]2N(C)C1 (stereo partly drawn)
1.07 (inactive)

Please report the measured normalized growth for CC(=O)N1CCCC1C(=O)O (stereo not drawn)
1 (inactive)

Provide one value: measured normalized growth of NC(=O)c1ccc(OCC(O)CN2CC=C(c3ccc(F)cc3)CC2)cc1 (stereo not drawn)
0.98 (inactive)

Tell us which normalized growth value is on record for "CC(C)(C)OC(=O)NCc1n[nH]c(=S)n1-c1ccccc1"
1.02 (inactive)

Find the measured normalized growth of CO[C@@H]1C[C@H](O[C@H]2CC[C@]3(C)C4CC[C@]5(C)[C@@H](C6=CC(=O)OC6)CC[C@]5(O)[C@@H]4CC[C@]3(O)C2)O[C@H](C)[C@@H]1O (stereo partly drawn) and report it.
0.877 (inactive)

Output measured normalized growth for this item: "O=C1c2ccccc2C(=O)N1CN1CCC(O)(c2ccc(Cl)cc2)CC1"
0.947 (inactive)

For the compound "Cc1ccc(Cl)cc1NC(=S)N(CCC#N)/N=C\c1ccc2c(c1)OCO2" , give its reported normalized growth.
1.04 (inactive)

Identify measured normalized growth corresponding to "O=C1C(c2ccc(Br)cc2)=C(O)c2ccccc21"
0.928 (inactive)

Please report normalized growth for the following compound: "COc1cc(C(=O)N2CCOCC2)cc(OC)c1OC"
1 (inactive)

Using known records, supply normalized growth for "CCOC(=O)/C(C#N)=C/Nc1ccc2c(c1)OCO2"
0.976 (inactive)

Please list normalized growth recorded for the compound "CSc1nc(NC(C)C)nc(NC(C)C)n1"
1.04 (inactive)

Given "N#CCS(=O)(=O)c1cccs1" , respond with its normalized growth.
0.92 (inactive)

Identify normalized growth associated with the compound "NC(=O)c1ccc([N+](=O)[O-])cc1Cl"
0.941 (inactive)

Using known records, supply normalized growth for "NC[C@H]1O[C@H](O[C@H]2[C@H](O)[C@@H](O[C@H]3O[C@H](CO)[C@@H](O)[C@H](N)[C@H]3O)[C@H](N)C[C@@H]2N)[C@H](N)[C@@H](O)[C@@H]1O"
1.01 (inactive)

Identify the reported normalized growth for the following entry. "O=[N+]([O-])c1cnc2ccccn12"
1.02 (inactive)

Tell me normalized growth reported for "COC(CNc1cccc(Cl)c1C#N)OC"
1.03 (inactive)

// fetch normalized growth given entry "CC(C)c1cccc(C(C)C)c1O"
0.999 (inactive)

Specify measured normalized growth for "CN(C)C(=O)C(CCN1CCC(O)(c2ccc(Cl)cc2)CC1)(c1ccccc1)c1ccccc1" .
0.999 (inactive)

Give the measured normalized growth for "CN1c2ccccc2C(=O)/C(=N/Nc2ccccc2F)S1(=O)=O"
1.03 (inactive)

Provide only the value of recorded normalized growth for "CCNC(=O)N1CCN(CCCC(c2ccc(F)cc2)c2ccc(F)cc2)CC1"
0.916 (inactive)

Specify normalized growth for OCC(O)Cn1c2ccccc2c2ccccc21 (stereo not drawn) and stop.
0.932 (inactive)

// fetch normalized growth given entry "c1ccc(-c2ncc3ccccn23)cc1"
1.03 (inactive)

Tell me normalized growth reported for "O=C(O)c1oc(C(=O)O)c(OCc2ccccc2)c1OCc1ccccc1"
1.07 (inactive)

Specify measured normalized growth for "N[C@H](CCC(=O)NCS(=O)(=O)O)C(=O)O" .
1.02 (inactive)

Given "O=C(O)C1=CC(=C(c2ccc(O)c(C(=O)O)c2)c2ccc(O)c(C(=O)O)c2)C=CC1=O" , respond with its normalized growth.
0.961 (inactive)

Look up and state reported normalized growth for "O=[N+]([O-])c1ccc(Oc2c(Cl)cccc2Cl)c(Cl)c1Oc1c(Cl)cccc1Cl"
1 (inactive)

Give the reported normalized growth for this compound. "N#CCCN1C(=O)C2(OCCO2)c2ccccc21"
1.02 (inactive)

Using the record for "CO[C@@H]1[C@@H](OC(N)=O)[C@@H](O)[C@H](Oc2ccc3c(O)c(NC(=O)c4ccc(O)c(CC=C(C)C)c4)c(=O)oc3c2C)OC1(C)C" , state its measured normalized growth.
0.991 (inactive)

Annotate the compound O=C(O)C1CC(=O)N(Cc2ccccc2Cl)C1 (stereo not drawn) with its measured normalized growth.
0.931 (inactive)
